Assignment: determine reported Percent Effect for the given molecules.
# Test system: Mycobacterium tuberculosis
# TEST PROTOCOL: Cornell - Phenotypic assay to identify agents that inhibit growth of Mycobacterium tuberculosis
# Format: functional
# Set-up: scale not given: direction of the effect not stated beside the values
# RECORDED CONDITIONS: 10 mM as filed; unlikely as a test dose
In all, about 53,000 compounds went through this assay and about 900 (1.7%) showed an effect of 50% or more. Many of the other results were omitted from the sample, so strong results are more common in it than they were.
The answer is to be given in %; state only the numeric part.

Param item = COc1coc(C(=O)Nc2nc(-c3cccnc3)cs2)cc1=O ; retrieve measured Percent Effect.
11.19

Which Percent Effect reading was recorded for the molecule O=C(NCCCO)Nc1cnc2cc(Cl)ccc2c1O ?
81.69

Quick one: Percent Effect of O=C(NCC(F)(F)F)c1coc(COc2cccc(F)c2)n1 ?
71.66

Give its Percent Effect value. Item: Cc1cccc(CN2CCC3(CCN(c4ncccn4)CC3)C2=O)c1.O=C(O)C(F)(F)F
58.32

What value of Percent Effect has been recorded for this entry: O=C(O)c1coc(COc2cccc(F)c2)n1
15.94

Please give the measured Percent Effect for this molecule: Cc1ccc(N2CCN(c3ccccc3C)CC2C)nn1 (configuration not stated)
29.54

I am curious: what Percent Effect value has been reported for O=C1CC(c2ccccc2)c2sc(C(=O)O)c(-c3ccccc3)c2N1 (configuration not stated) ?
17.04

Which Percent Effect is listed for COC(=O)[C@@H](NC(=O)c1coc(COc2cccc(F)c2)n1)C(C)C ?
30.38

Name the recorded Percent Effect for CCC(C)NC(=O)c1coc(COc2cccc(F)c2)n1 (configuration not stated) .
60.97

Return reported Percent Effect; argument: Cc1ccccc1N1CCN(c2cc(N(C)C)ncn2)C(C)C1 (configuration not stated)
75.02

// lookup Percent Effect for CC(C)(NC(=O)c1coc(COc2cccc(F)c2)n1)C(N)=O
8.84

// returns reported Percent Effect for input O=C(NCCCN1CCOCC1)Nc1cnc2cc(Cl)ccc2c1O
32.37
